Please respond with reported AMARE damage to plant for every item in the list.
Tested on: Amaranthus retroflexus
methodNotes: Herbicidal action, post-emergence, seed trays in climatic chamber (Example B1)
Type: in vivo
runConditions: 1000 g/ha, evaluated after 9 days, 10=total damage to plant, 0=no damage to plant
Numbers only.

| smilesRepresentation | value |
| --- | --- |
| Cn1c(=O)c(-c2c(F)ccc(F)c2Cl)c(OC(=O)C(C)(C)C)c2ncccc21 | 0 |
| O=c1[nH]c2nncnc2c(O)c1-c1c(F)ccc(F)c1Cl | 2 |
| CCc1cc(C)cc(CC)c1-c1c(OC(=O)C(C)C)c2ncccc2n(C)c1=O | 3 |

As a next step, examine the compound that follows.
Lab note: compound O=c1[nH]c2cccnc2c(O)c1-c1ccccc1OC(F)(F)F tested on Amaranthus retroflexus; recorded AMARE damage to plant was 0

====

Please respond with reported SOLNI damage to plant for every item in the list.
Test system: Solanum nigrum
methodNotes: Herbicidal action, post-emergence, pots in glasshouse (Example B2)
Type: in vivo
runConditions: 1000 g/ha, evaluated after 13 days, 10=total damage to plant, 0=no damage to plant
Give bare numbers.

// below: answered compounds
| smilesRepresentation | value |
| --- | --- |
| Cc1cc(C)c(-c2c(O)c3ncnnc3[nH]c2=O)c(C)c1 | 1 |
| O=c1c(-c2c(F)ccc(Br)c2Cl)c(O)c2cccnc2n1CC(F)F | 7 |

As a next step, examine the compound that follows.
Lab note: compound Cn1c(=O)c(-c2c(F)ccc(F)c2Cl)c(O)c2ccc(Cl)nc21 tested on Solanum nigrum; recorded SOLNI damage to plant was 4

====

Tested on: Solanum nigrum
methodNotes: Herbicidal action, post-emergence, seed trays in climatic chamber (Example B1)
Assay type: in vivo
runConditions: 1000 g/ha, evaluated after 9 days, 10=total damage to plant, 0=no damage to plant
metricName: SOLNI damage to plant
One number for each entry.

// below: answered compounds
| smilesRepresentation | value |
| --- | --- |
| Cn1c(=O)c(-c2c(F)ccc(F)c2Cl)c(OC(=O)C(C)(C)C)c2ncccc21 | 7 |
| Cn1c(=O)c(-c2c(F)ccc(F)c2Cl)c(OC(=O)C(C)(C)C)c2cccnc21 | 0 |
| CC(C)C(=O)Oc1c(-c2c(F)ccc(F)c2Cl)c(=O)n(C)c2cccnc12 | 4 |
| CCc1cc(C)cc(CC)c1-c1c(OC(=O)C(C)C)c2ncccc2n(C)c1=O | 6 |
| O=c1[nH]c2cccnc2c(O)c1-c1ccccc1OC(F)(F)F | 0 |
| CCc1cc(C)cc(CC)c1-c1c(OC(=O)C(C)C)c2cccnc2n(C)c1=O | 0 |
| Cn1c(=O)c(-c2c(F)ccc(F)c2Cl)c(O)c2ncccc21 | 3 |
| O=c1[nH]c2cccnc2c(O)c1-c1cccnc1 | 0 |
| CCc1cc(C)cc(CC)c1-c1c(OC(=O)C(C)(C)C)c2cccnc2n(C)c1=O | 0 |

As a next step, examine the compound that follows.
What the record says about CCc1cc(C)cc(CC)c1-c1c(O)c2cccnc2n(C)c1=O : SOLNI damage to plant is 0

====

Tested on: Stellaria media
methodNotes: Herbicidal action, post-emergence, seed trays in climatic chamber (Example B1)
Assay type: in vivo
runConditions: 1000 g/ha, evaluated after 9 days, 10=total damage to plant, 0=no damage to plant
metricName: STEME damage to plant
Answers are plain numbers.

| molecule | metricName | value |
| --- | --- | --- |
| CC(C)C(=O)Oc1c(-c2c(F)ccc(F)c2Cl)c(=O)n(C)c2ncccc12 [D7] | STEME damage to plant | 3 |

For each of the items listed, what is its STEME damage to plant?
1. CCc1cc(C)cc(CC)c1-c1c(O)c2cccnc2n(C)c1=O [D20]
2. CCc1cc(C)cc(CC)c1-c1c(OC(=O)C(C)C)c2ncccc2n(C)c1=O [A6]
3. Cn1c(=O)c(-c2c(F)ccc(F)c2Cl)c(O)c2ncccc21 [A3]
4. O=c1[nH]c2cccnc2c(O)c1-c1ccc(Cl)cc1Cl [A1]
5. O=c1[nH]c2cccnc2c(O)c1-c1cccnc1 [A7]
6. O=c1[nH]c2cccnc2c(O)c1-c1ccccc1OC(F)(F)F [A2]
7. Cn1c(=O)c(-c2c(F)ccc(F)c2Cl)c(O)c2cccnc21 [D5]

1. 5
2. 8
3. 3
4. 0
5. 6
6. 3
7. 7

For each of the items listed, what is its STEME damage to plant?
1. O=c1[nH]c2nncnc2c(O)c1-c1c(F)ccc(F)c1Cl [E4]
2. Cn1c(=O)c(-c2c(F)ccc(F)c2Cl)c(OC(=O)C(C)(C)C)c2ncccc21 [A5]
3. CCc1cc(C)cc(CC)c1-c1c(OC(=O)C(C)(C)C)c2cccnc2n(C)c1=O [D8]
4. CC(C)C(=O)Oc1c(-c2c(F)ccc(F)c2Cl)c(=O)n(C)c2cccnc12 [A4]
5. Cn1c(=O)c(-c2c(F)ccc(F)c2Cl)c(OC(=O)C(C)(C)C)c2cccnc21 [D9]

1. 0
2. 0
3. 2
4. 4
5. 2

What the record says about CCc1cc(C)cc(CC)c1-c1c(OC(=O)C(C)C)c2cccnc2n(C)c1=O [D6] : STEME damage to plant is 2

====

Tested on: Solanum nigrum
methodNotes: Herbicidal action, post-emergence, seed trays in climatic chamber (Example B1)
Assay type: in vivo
runConditions: 1000 g/ha, evaluated after 9 days, 10=total damage to plant, 0=no damage to plant
metricName: SOLNI damage to plant

// below: answered compounds
| smilesRepresentation | metricName | value |
| --- | --- | --- |
| Cn1c(=O)c(-c2c(F)ccc(F)c2Cl)c(O)c2cccnc21 | SOLNI damage to plant | 0 |
| CC(C)C(=O)Oc1c(-c2c(F)ccc(F)c2Cl)c(=O)n(C)c2ncccc12 | SOLNI damage to plant | 0 |
| O=c1[nH]c2cccnc2c(O)c1-c1ccc(Cl)cc1Cl | SOLNI damage to plant | 0 |

As a next step, examine the compound that follows.
What the record says about O=c1[nH]c2nncnc2c(O)c1-c1c(F)ccc(F)c1Cl : SOLNI damage to plant is 4
